B1: FBXO3 (parent)
chain: AGGFQQRQGLKYCLPLTFCIHTGL

- Variants of: B1
- run description: protein stability index of a GFP-peptide fusion (GPS, HEK-293T) (PSI 1-6); higher = more stable;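 also: lentivirally expressed fusions sorted by FACS into six bins by GFP to DsRed ratio, PSI derived from sequencing read proportions per bin multiplied by bin number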
- stated conditions: c terminus: a fixed tail appended
Criterion: protein stability index meeting or surpassing 3. Met: 1. Not met: 0.

Sample answers from the record:
[
  {
    "variant spec": "K11I",
    "class name": 1
  },
  {
    "variant spec": "A1C",
    "class name": 0
  }
]

Say whether Q8A shows protein stability index of 3 or more.
0

Say whether R7Y shows protein stability index of 3 or more.
0

Say whether G23V shows protein stability index of 3 or more.
1
